Data origin: patent US9580390B2

Target: human TTK (Homo sapiens, UniProt P33981)
Construct: amino terminal GST fusion of full length human TTK; purchased Invitrogen
Sequence (P33981 1-857): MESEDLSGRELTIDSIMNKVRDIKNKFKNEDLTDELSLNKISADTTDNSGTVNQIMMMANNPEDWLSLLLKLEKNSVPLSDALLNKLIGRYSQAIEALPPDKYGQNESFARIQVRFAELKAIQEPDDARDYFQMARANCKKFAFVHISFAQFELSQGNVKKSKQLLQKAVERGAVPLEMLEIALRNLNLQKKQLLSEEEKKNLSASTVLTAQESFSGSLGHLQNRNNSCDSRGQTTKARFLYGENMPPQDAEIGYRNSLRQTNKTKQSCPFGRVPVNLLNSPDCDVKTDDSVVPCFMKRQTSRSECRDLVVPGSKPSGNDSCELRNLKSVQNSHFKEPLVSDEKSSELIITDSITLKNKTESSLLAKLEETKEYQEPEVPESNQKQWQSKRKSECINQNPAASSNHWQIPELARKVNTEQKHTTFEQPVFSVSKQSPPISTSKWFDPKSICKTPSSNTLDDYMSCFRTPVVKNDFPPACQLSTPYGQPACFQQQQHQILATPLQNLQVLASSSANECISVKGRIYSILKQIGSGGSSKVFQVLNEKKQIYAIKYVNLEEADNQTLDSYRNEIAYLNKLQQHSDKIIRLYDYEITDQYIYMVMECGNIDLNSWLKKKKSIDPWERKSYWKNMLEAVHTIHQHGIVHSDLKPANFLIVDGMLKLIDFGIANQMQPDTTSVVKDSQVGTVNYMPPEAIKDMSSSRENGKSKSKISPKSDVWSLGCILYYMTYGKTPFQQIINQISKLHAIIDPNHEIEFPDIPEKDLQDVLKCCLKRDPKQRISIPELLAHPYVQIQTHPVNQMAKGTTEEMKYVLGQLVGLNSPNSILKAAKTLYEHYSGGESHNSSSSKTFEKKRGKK
Assay: TTK inhibition assay (indirect ELISA)
Format: biochemical
Conditions: read-out: TTK IC50 Range
pIC50: −log10 of the molar value.
Readings of pIC50 for the listed compounds

CN1[C@@H]2CC[C@H]1C[C@H](Oc1ccc(-c3n[nH]c4ccc(C(=O)NC(c5ccccc5)C5CC5)cc34)cc1)C2 (stereo partly drawn)    > 7.00
CCN(C(=O)Nc1ccc2[nH]nc(-c3ccc(N4CCOCC4)cc3)c2c1)c1ccccc1    < 6.30
C[C@@H]1CN(C2(CNC(=O)c3ccc4[nH]nc(-c5ccc(N6CCOCC6)cc5)c4c3)CCCCC2)C[C@H](C)O1    6.30 to 7.00
CC(C)[C@H](NC(=O)c1ccc2[nH]nc(-c3ccc(C4CCN(C5COC5)CC4)cc3)c2c1)c1ccccc1Cl    > 7.00
CC(C)CC(NC(=O)c1ccc2[nH]nc(-c3ccc(N4CCN(C5COC5)CC4)cc3)c2c1)c1ccccc1Cl (stereo not drawn)    > 7.00
O=C(NCC1(N2CCC(F)(F)CC2)CCCCC1)c1ccc2[nH]nc(-c3ccc(N4CCOCC4)cc3)c2c1    6.30 to 7.00

Specify pIC50 for O=CN1C2CCC1CC(Oc1ccc(-c3n[nH]c4ccc(C(=O)N[C@H](c5ccccn5)C5CC5)cc34)cc1)C2 (stereo partly drawn) and stop.
> 7.00

Could you please provide reported pIC50 for O=C(NCC1(c2cccnc2)CC1)c1ccc2[nH]nc(-c3ccc(N4CCOCC4)cc3)c2c1 ? Thanks!
> 7.00

Please look at this compound and report its pIC50: C[C@@H]1CN(c2ccc(-c3n[nH]c4ccc(C(=O)NCC5(N6CCOCC6)CCCCC5)cc34)cc2)C[C@H](C)O1
> 7.00

Please indicate pIC50 recorded for O=C(N[C@H](c1ccccn1)C1CCCC1)c1ccc2[nH]nc(-c3ccc(N4C5CCC4CC(O)C5)cc3)c2c1 (stereo partly drawn) [Example A360]
> 7.00

Supply recorded pIC50 for CC(C)C[C@H](NC(=O)c1ccc2[nH]nc(-c3ccc(N4CC(N5CCOCC5)C4)cc3)c2c1)c1ccccc1Cl here.
> 7.00

# return recorded pIC50 for input CN1CCC(Oc2ccc(-c3n[nH]c4ccc(NC(=O)Nc5ccccc5F)cc34)cc2)CC1
6.30 to 7.00

// fetch pIC50 given entry CC(C)C[C@H](NC(=O)c1ccc2[nH]nc(-c3ccc(N4CCN(C5COC5)CC4)cc3)c2c1)c1ccccc1F
> 7.00

Note pIC50 for the compound shown: CC(C)[C@H](NC(=O)c1ccc2[nH]nc(-c3ccc(OC4CC5CCC(C4)N5C=O)cc3)c2c1)c1ccccc1Cl (stereo partly drawn)
> 7.00

Consider the compound O=C(NCC1(N2CCOCC2)CCCOC1)c1ccc2[nH]nc(-c3ccc(N4C5CCC4CC(O)C5)cc3)c2c1 (stereo not drawn) . State its measured pIC50.
> 7.00

Supply recorded pIC50 for CN1CC[C@@H](Oc2ccc(-c3n[nH]c4ccc(C(=O)NCC5(N6CCOCC6)CCCCC5)cc34)cc2)[C@@H](F)C1 here.
> 7.00

Read the entry CN1CCC(Oc2ccc(-c3n[nH]c4ccc(C(=O)NCC5(c6ccccc6)CC5)cc34)cc2)CC1 and write its reported pIC50.
> 7.00

Supply reported pIC50 belonging to this compound: CC(C)C[C@H](NC(=O)c1ccc2[nH]nc(-c3ccc(N4[C@@H]5CCC[C@H]4COC5)cc3)c2c1)c1ccccc1Cl
> 7.00

Indicate its recorded pIC50; the compound in question is CC(C)(O)CN1CCC(Oc2ccc(-c3n[nH]c4ccc(C(=O)N[C@H](c5ccsc5)C5CC5)cc34)cc2)CC1
> 7.00

Using the record for CN1[C@@H]2CC[C@H]1C[C@@H](Oc1ccc(-c3n[nH]c4ccc(C(=O)NCC5(c6cccs6)CCOCC5)cc34)cc1)C2 , state its measured pIC50.
> 7.00

Give a short answer stating reported pIC50 for CC(C)[C@H](NC(=O)c1ccc2[nH]nc(-c3ccc(N4CCN(C5COC5)CC4)cc3)c2c1)c1ccccc1Cl .
> 7.00

Return pIC50 for the following compound: O=C(CC1(c2ccccc2)COC1)Nc1ccc2[nH]nc(-c3ccc(OC4CCN(C5COC5)CC4)cc3)c2c1
6.30 to 7.00

Look up and report measured pIC50 for this entry: O=C(N[C@H](c1ccccc1)C1CC1)c1ccc2[nH]nc(-c3ccc(N4C5CCC4CC(O)C5)cc3)c2c1 (stereo partly drawn)
> 7.00

---

Known GI50 of a selection of compounds
test system: TICs (Ovarian 2393A); test: Ovarian tumor-initiating cell growth inhibition (Alamar Blue); assay type: cell-based; conditions: 144 h; Ovarian 2393A TICs, 6 days; read-out: Tumor Initiating Cell GI50 Range Ovarain 2393A

O=C(N[C@H](c1ccccn1)C1CC1)c1ccc2[nH]nc(-c3ccc(N4C5CCC4CC(O)C5)cc3)c2c1 (stereo partly drawn) [Example A361]    < 0.1 µM

Give me measured GI50, please, for this compound: O=C(N[C@H](c1ccccc1Cl)C1CC1)c1ccc2[nH]nc(-c3ccc(OC4CC5CCC(C4)N5C4COC4)cc3)c2c1 (stereo partly drawn) [Example A349]
< 0.1 µM

Supply recorded GI50 for CC(C)[C@H](NC(=O)c1ccc2[nH]nc(-c3ccc(OC4CC5CCC(C4)N5C=O)cc3)c2c1)c1ccccc1Cl (stereo partly drawn) [Example A333] here.
< 0.1 µM

Provide only the value of recorded GI50 for CN1CCC(Oc2ccc(-c3n[nH]c4ccc(C(=O)NC(c5ccccn5)C5CCC5)cc34)cc2)CC1 (stereo not drawn) [Example A210]
0.1 to 0.5 µM

Specify measured GI50 for CC(C)C(NC(=O)c1ccc2[nH]nc(-c3ccc(OC4CC5CCC(C4)N5C)cc3)c2c1)c1ccccn1 (stereo not drawn) [Example A395] .
0.1 to 0.5 µM

Consider the compound CN1C2CCC1CC(Oc1ccc(-c3n[nH]c4ccc(C(=O)N[C@@H](c5ccsc5)C5CCCC5)cc34)cc1)C2 (stereo partly drawn) [Example A247] . State its measured GI50.
0.1 to 0.5 µM

Give reported GI50 value for CC(C)[C@H](NC(=O)c1ccc2[nH]nc(-c3ccc(OC4CC5CCC(C4)N5C4COC4)cc3)c2c1)c1ccccc1Cl (stereo partly drawn) [Example A335]
< 0.1 µM

---

# IC50 per entry
target: human TTK (Homo sapiens, UniProt P33981); construct: amino terminal GST fusion of full length human TTK; purchased Invitrogen; test: TTK inhibition assay (indirect ELISA); type: biochemical; settings: read-out: TTK IC50 Range

O=C(N[C@@H](c1ccccn1)C1CC1)c1ccc2[nH]nc(-c3ccc(OC4CC5CCC(C4)N5C4COC4)cc3)c2c1 (stereo partly drawn)    < 100 nM
CC(C)(C)OC(=O)N1CCC(Oc2ccc(-c3n[nH]c4ccc(NC(=O)C(c5ccsc5)N5CCCC5)cc34)cc2)CC1 (stereo not drawn)    100 to 500 nM
O=C(NCC1(N2CCOCC2)CCCC1)c1ccc2[nH]nc(-c3ccc(O[C@@H]4CCC[C@H](O)C4)cc3)c2c1 (relative stereo)    < 100 nM
CC(C)[C@@H](NC(=O)c1ccc2[nH]nc(-c3ccc(OC4CC5CCC(C4)N5C)cc3)c2c1)c1ccccc1Cl (stereo partly drawn)    < 100 nM
CC(C)C(NC(=O)c1ccc2[nH]nc(-c3ccc(O[C@H]4C[C@H]5CC[C@@H](C4)N5C4COC4)cc3)c2c1)c1ccccc1Cl (stereo partly drawn)    < 100 nM

Please report IC50 for the following compound: O=C(N[C@H](c1ccccn1)C1CC1)c1ccc2[nH]nc(-c3ccc4c(c3)C(=O)CCO4)c2c1
< 100 nM
